- System: Escherichia coli TOP10
- Protocol: shrunken log2 fold change of peptide-encoding DNA abundance (4.5 h post-induction vs induction); higher = less antimicrobial activity (less host growth inhibition)
- Protocol Conditions: time post-induction: 4.5 h; library: site-saturation at positions 5, 18, 19, 20
Assay Readout: shrunken log2 fold change

Examples from the recorded data:
- Sequence Entry: "RRIRSRPPRLPRPRPRPRLGPRP"
  Target: "Escherichia coli TOP10"
  shrunken log2 fold change: 0.468
- Sequence Entry: "RRIRKRPPRLPRPRPRPDWVPRP"
  Target: "Escherichia coli TOP10"
  shrunken log2 fold change: 0.0285
- Sequence Entry: "RRIRCRPPRLPRPRPRPQRFPRP"
  Target: "Escherichia coli TOP10"
  shrunken log2 fold change: -0.0259
- Sequence Entry: "RRIRHRPPRLPRPRPRPPLIPRP"
  Target: "Escherichia coli TOP10"
  shrunken log2 fold change: -0.0533
- Sequence Entry: "RRIRYRPPRLPRPRPRPKFLPRP"
  Target: "Escherichia coli TOP10"
  shrunken log2 fold change: -0.139
- Sequence Entry: "RRIRCRPPRLPRPRPRPYNMPRP"
  Target: "Escherichia coli TOP10"
  shrunken log2 fold change: -0.188
- Sequence Entry: "RRIRDRPPRLPRPRPRPWYFPRP"
  Target: "Escherichia coli TOP10"
  shrunken log2 fold change: -0.327
- Sequence Entry: "RRIRVRPPRLPRPRPRPEKMPRP"
  Target: "Escherichia coli TOP10"
  shrunken log2 fold change: -0.3
- Sequence Entry: "RRIRARPPRLPRPRPRPPCCPRP"
  Target: "Escherichia coli TOP10"
  shrunken log2 fold change: 0.571
- Sequence Entry: "RRIRYRPPRLPRPRPRPCRGPRP"
  Target: "Escherichia coli TOP10"
  shrunken log2 fold change: -0.157

Quick one: shrunken log2 fold change for "RRIRQRPPRLPRPRPRPFYVPRP" ?
-0.484

Same thing, different sequence: "RRIRSRPPRLPRPRPRPQPCPRP"
2.29

# repeat for "RRIRERPPRLPRPRPRPGMMPRP"
-0.235

Moving on to the next sequence: "RRIRKRPPRLPRPRPRPQSWPRP"
0.451

Please answer likewise for "RRIRMRPPRLPRPRPRPINWPRP"
-0.011

----------
The entries below come with measured shrunken log2 fold change values attached.
- Tested on: Escherichia coli TOP10
- Protocol: shrunken log2 fold change of peptide-encoding DNA abundance (4.5 h post-induction vs induction); higher = less antimicrobial activity (less host growth inhibition)
- Protocol Conditions: time post-induction: 4.5 h; library: site-saturation at positions 5, 18, 19, 20
Respond with the number and no other words.

- Sequence Entry: "RRIRERPPRLPRPRPRPIRHPRP"
  shrunken log2 fold change: -0.397
- Sequence Entry: "RRIRPRPPRLPRPRPRPDNMPRP"
  shrunken log2 fold change: -0.337
- Sequence Entry: "RRIRARPPRLPRPRPRPGQSPRP"
  shrunken log2 fold change: 0.266

Look up shrunken log2 fold change for this sequence: "RRIRHRPPRLPRPRPRPNLKPRP"
-0.465

Same read-out for "RRIRQRPPRLPRPRPRPCYVPRP" ?
-0.0541

And then "RRIRVRPPRLPRPRPRPIAGPRP" , what is it?
0.0142

Then "RRIRRRPPRLPRPRPRPIGNPRP" ?
0.0912

Now consider "RRIRDRPPRLPRPRPRPRRSPRP" .
0.174

----------
- System: Escherichia coli TOP10
- Protocol: shrunken log2 fold change of peptide-encoding DNA abundance (4.5 h post-induction vs induction); higher = less antimicrobial activity (less host growth inhibition)
- Protocol Conditions: time post-induction: 4.5 h; library: site-saturation at positions 5, 18, 19, 20
// label = condition met if shrunken log2 fold change is not less than -0.1, otherwise condition not met

Consider the following illustrative entries.
- Sequence Entry: "RRIRRRPPRLPRPRPRPLVFPRP"
  Target: "Escherichia coli TOP10"
  Assigned Class: "condition met"
- Sequence Entry: "RRIRLRPPRLPRPRPRPRMDPRP"
  Target: "Escherichia coli TOP10"
  Assigned Class: "condition not met"
- Sequence Entry: "RRIRYRPPRLPRPRPRPWVIPRP"
  Target: "Escherichia coli TOP10"
  Assigned Class: "condition met"

Decide: is the reported value of shrunken log2 fold change for "RRIRKRPPRLPRPRPRPVVKPRP" equal to or greater than -0.1?
condition met

What would you report for "RRIRERPPRLPRPRPRPINYPRP" ?
condition not met

Now consider "RRIRLRPPRLPRPRPRPVVMPRP" .
condition not met

Record: "RRIRTRPPRLPRPRPRPMCAPRP"
condition met

Would you kindly repeat that for "RRIRFRPPRLPRPRPRPCWVPRP" ?
condition not met

----------
- System: Escherichia coli TOP10
- Protocol: shrunken log2 fold change of peptide-encoding DNA abundance (4.5 h post-induction vs induction); higher = less antimicrobial activity (less host growth inhibition)
- Protocol Conditions: time post-induction: 4.5 h; library: site-saturation at positions 5, 18, 19, 20
Assay Readout: shrunken log2 fold change

- Sequence Entry: "RRIRYRPPRLPRPRPRPIMYPRP"
  shrunken log2 fold change: -0.0119
- Sequence Entry: "RRIRWRPPRLPRPRPRPGQPPRP"
  shrunken log2 fold change: 0.326
- Sequence Entry: "RRIRYRPPRLPRPRPRPSYTPRP"
  shrunken log2 fold change: -1.38
- Sequence Entry: "RRIRNRPPRLPRPRPRPYQPPRP"
  shrunken log2 fold change: -0.31
- Sequence Entry: "RRIRHRPPRLPRPRPRPHVSPRP"
  shrunken log2 fold change: -0.0122

# evaluate next
Fill in: shrunken log2 fold change of "RRIRLRPPRLPRPRPRPFRDPRP" is ___
0.00463

----------
- System: Escherichia coli TOP10
- Protocol: shrunken log2 fold change of peptide-encoding DNA abundance (4.5 h post-induction vs induction); higher = less antimicrobial activity (less host growth inhibition)
- Protocol Conditions: time post-induction: 4.5 h; library: site-saturation at positions 5, 18, 19, 20
Please note: Yes applies when shrunken log2 fold change is -0.07 or greater, and No applies otherwise.

State whether the measured shrunken log2 fold change reaches -0.07, counting equality as reaching it, for "RRIRLRPPRLPRPRPRPFVHPRP"
No

----------
- System: Escherichia coli TOP10
- Protocol: shrunken log2 fold change of peptide-encoding DNA abundance (4.5 h post-induction vs induction); higher = less antimicrobial activity (less host growth inhibition)
- Protocol Conditions: time post-induction: 4.5 h; library: site-saturation at positions 5, 18, 19, 20
Lab note: anything with shrunken log2 fold change at or over -0.2 counts as T; the rest go in F.

Observe how each entry below is paired with its result.
- Sequence Entry: "RRIRARPPRLPRPRPRPFVHPRP"
  Assigned Class: "F"
- Sequence Entry: "RRIRRRPPRLPRPRPRPFKEPRP"
  Assigned Class: "T"
- Sequence Entry: "RRIRLRPPRLPRPRPRPFCPPRP"
  Assigned Class: "F"

API: above_or_equal(metric=shrunken log2 fold change, cutoff=-0.2) for item "RRIRERPPRLPRPRPRPKYKPRP"
F

Query "RRIRYRPPRLPRPRPRPRTEPRP" next
T

----------
- System: Escherichia coli TOP10
- Protocol: shrunken log2 fold change of peptide-encoding DNA abundance (4.5 h post-induction vs induction); higher = less antimicrobial activity (less host growth inhibition)
- Protocol Conditions: time post-induction: 4.5 h; library: site-saturation at positions 5, 18, 19, 20
Decide using shrunken log2 fold change: a value greater than or equal to -0.06 is rule met, a smaller one is rule not met.

- Sequence Entry: "RRIRCRPPRLPRPRPRPNNRPRP"
  Target: "Escherichia coli TOP10"
  Assigned Class: "rule not met"
- Sequence Entry: "RRIRYRPPRLPRPRPRPYLFPRP"
  Target: "Escherichia coli TOP10"
  Assigned Class: "rule not met"
- Sequence Entry: "RRIRSRPPRLPRPRPRPSDVPRP"
  Target: "Escherichia coli TOP10"
  Assigned Class: "rule not met"

Reported shrunken log2 fold change at or above -0.06? "RRIRTRPPRLPRPRPRPHNRPRP"
rule met

# repeat for "RRIRWRPPRLPRPRPRPRLWPRP"
rule met

----------
Entries annotated with measured shrunken log2 fold change
- Test system: Escherichia coli TOP10;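 further: peptides expressed intracellularly from a pBAD plasmid library in pooled LB shake-flask culture, induced with 0.3% L-arabinose, DNA abundance read by NGS, three biological replicates, DESeq2 with apeglm shrinkage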
- Protocol: shrunken log2 fold change of peptide-encoding DNA abundance (4.5 h post-induction vs induction); higher = less antimicrobial activity (less host growth inhibition)
- Protocol Conditions: time post-induction: 4.5 h; library: site-saturation at positions 5, 18, 19, 20
// keep it numeric: no unit symbol after the value

- Sequence Entry: "RRIRMRPPRLPRPRPRPASRPRP"
  shrunken log2 fold change: 0.201
- Sequence Entry: "RRIRERPPRLPRPRPRPPFWPRP"
  shrunken log2 fold change: -0.0269
- Sequence Entry: "RRIRLRPPRLPRPRPRPAVPPRP"
  shrunken log2 fold change: 0.3
- Sequence Entry: "RRIRKRPPRLPRPRPRPWWMPRP"
  shrunken log2 fold change: 0.105
- Sequence Entry: "RRIRSRPPRLPRPRPRPKTLPRP"
  shrunken log2 fold change: 2.07
- Sequence Entry: "RRIRVRPPRLPRPRPRPIMNPRP"
  shrunken log2 fold change: -0.752

Give the measured shrunken log2 fold change of "RRIRKRPPRLPRPRPRPKLYPRP" .
0.164
